test system: A498; assay: NCI 60 cell line screen (SRB), Renal Cancer; type: cell-based; details: PG=0
Log10TGI values for the compounds below.

| Compound | Unit Tag | Limit Sign | Log10TGI |
| --- | --- | --- | --- |
| C[C@@H]1CC[C@H]2[C@@H](C)C(=O)O[C@@H]3O[C@]4(C)CC[C@@H]1[C@]32OO4 [Artemisinin, artemisinin] | log10M | > | −4.00 |
| CC1=C(C=Cc2cccc(C=CC3=C(C)C4CCC(C)C5CCC6(C)OOC45C(O3)O6)c2)OC2OC3(C)CCC4C(C)CCC1C24OO3 (stereo not shown) [VII-h] | log10M | > | −4.00 |
| CC1=C(C=Cc2cccc(C=CC3=C(C)C4CCC(C)C5CCC6(C)OOC45C(O3)O6)c2)OC2OC3(C)CCC4C(C)CCC1C24OO3 (stereo not shown) [VII-g] | log10M | = | −4.05 |
| CC1=C(C=Cc2cccc(C=CC3=C(C)C4CCC(C)C5CCC6(C)OOC45C(O3)O6)c2)OC2OC3(C)CCC4C(C)CCC1C24OO3 (stereo not shown) [VII-f] | log10M | = | −4.37 |

* * *

Log10TGI values for the compounds below.
test system: OVCAR-5; test: NCI 60 cell line screen (SRB), Ovarian Cancer; format: cell-based; settings: PG=0
Quantity Measured: Log10TGI

| Compound | Reported |
| --- | --- |
| CC1=C(C=Cc2cccc(C=CC3=C(C)C4CCC(C)C5CCC6(C)OOC45C(O3)O6)c2)OC2OC3(C)CCC4C(C)CCC1C24OO3 (centres unmarked) [VII-g] | >−4.00 log10M |
| CC1=C(C=Cc2cccc(C=CC3=C(C)C4CCC(C)C5CCC6(C)OOC45C(O3)O6)c2)OC2OC3(C)CCC4C(C)CCC1C24OO3 (centres unmarked) [VII-f] | >−4.00 log10M |
| C[C@@H]1CC[C@H]2[C@@H](C)C(=O)O[C@@H]3O[C@]4(C)CC[C@@H]1[C@]32OO4 | >−4.00 log10M |
| CC1=C(C=Cc2cccc(C=CC3=C(C)C4CCC(C)C5CCC6(C)OOC45C(O3)O6)c2)OC2OC3(C)CCC4C(C)CCC1C24OO3 (centres unmarked) [VII-h] | >−4.00 log10M |
| CC(=O)O[C@H]1C(=O)[C@@]2(C)[C@H]([C@H](OC(=O)c3ccccc3)[C@]3(O)C[C@H](OC(=O)[C@H](O)[C@@H](NC(=O)c4ccccc4)c4ccccc4)C(C)=C1C3(C)C)[C@]1(OC(C)=O)CO[C@@H]1C[C@@H]2O [Paclitaxel, paclitaxel, reference compound] | −4.92 log10M |

* * *

tested on: K-562; assay: NCI 60 cell line screen (SRB), Leukemia; assay type: cell-based; details: PG=0

| Compound | Target Desc | Unit Tag | Log10TGI |
| --- | --- | --- | --- |
| CC1=C(C=Cc2cccc(C=CC3=C(C)C4CCC(C)C5CCC6(C)OOC45C(O3)O6)c2)OC2OC3(C)CCC4C(C)CCC1C24OO3 (centres unmarked) [VII-h] | K-562 | log10M | −7.70 |
| CC1=C(C=Cc2cccc(C=CC3=C(C)C4CCC(C)C5CCC6(C)OOC45C(O3)O6)c2)OC2OC3(C)CCC4C(C)CCC1C24OO3 (centres unmarked) [VII-g] | K-562 | log10M | −7.31 |
| CC(=O)O[C@H]1C(=O)[C@@]2(C)[C@H]([C@H](OC(=O)c3ccccc3)[C@]3(O)C[C@H](OC(=O)[C@H](O)[C@@H](NC(=O)c4ccccc4)c4ccccc4)C(C)=C1C3(C)C)[C@]1(OC(C)=O)CO[C@@H]1C[C@@H]2O [Paclitaxel, paclitaxel, reference compound] | K-562 | log10M | −10.83 |
| C[C@@H]1CC[C@H]2[C@@H](C)C(=O)O[C@@H]3O[C@]4(C)CC[C@@H]1[C@]32OO4 | K-562 | log10M | −4.00 |
| CC1=C(C=Cc2cccc(C=CC3=C(C)C4CCC(C)C5CCC6(C)OOC45C(O3)O6)c2)OC2OC3(C)CCC4C(C)CCC1C24OO3 (centres unmarked) [VII-f] | K-562 | log10M | −6.18 |

* * *

tested on: UACC-62; test: NCI 60 cell line screen (SRB), Melanoma; type: cell-based; details: PG=0

| Molecule | Target Desc | Log10TGI |
| --- | --- | --- |
| CC1=C(C=Cc2cccc(C=CC3=C(C)C4CCC(C)C5CCC6(C)OOC45C(O3)O6)c2)OC2OC3(C)CCC4C(C)CCC1C24OO3 (centres unmarked) [VII-g] | UACC-62 | >−4.00 log10M |
| CC1=C(C=Cc2cccc(C=CC3=C(C)C4CCC(C)C5CCC6(C)OOC45C(O3)O6)c2)OC2OC3(C)CCC4C(C)CCC1C24OO3 (centres unmarked) [VII-f] | UACC-62 | >−4.00 log10M |
| C[C@@H]1CC[C@H]2[C@@H](C)C(=O)O[C@@H]3O[C@]4(C)CC[C@@H]1[C@]32OO4 [Artemisinin, artemisinin] | UACC-62 | >−4.00 log10M |
| CC1=C(C=Cc2cccc(C=CC3=C(C)C4CCC(C)C5CCC6(C)OOC45C(O3)O6)c2)OC2OC3(C)CCC4C(C)CCC1C24OO3 (centres unmarked) [VII-h] | UACC-62 | >−4.00 log10M |
| CC(=O)O[C@H]1C(=O)[C@@]2(C)[C@H]([C@H](OC(=O)c3ccccc3)[C@]3(O)C[C@H](OC(=O)[C@H](O)[C@@H](NC(=O)c4ccccc4)c4ccccc4)C(C)=C1C3(C)C)[C@]1(OC(C)=O)CO[C@@H]1C[C@@H]2O [Paclitaxel, paclitaxel, reference compound] | UACC-62 | −4.71 log10M |

* * *

test system: LOX IMVI; test: NCI 60 cell line screen (SRB), Melanoma; format: cell-based; conditions: PG=0

| Molecule | Unit Tag | Limit Sign | Log10TGI |
| --- | --- | --- | --- |
| CC1=C(C=Cc2cccc(C=CC3=C(C)C4CCC(C)C5CCC6(C)OOC45C(O3)O6)c2)OC2OC3(C)CCC4C(C)CCC1C24OO3 (stereo not shown) [VII-g] | log10M | = | −5.06 |
| CC(=O)O[C@H]1C(=O)[C@@]2(C)[C@H]([C@H](OC(=O)c3ccccc3)[C@]3(O)C[C@H](OC(=O)[C@H](O)[C@@H](NC(=O)c4ccccc4)c4ccccc4)C(C)=C1C3(C)C)[C@]1(OC(C)=O)CO[C@@H]1C[C@@H]2O [Paclitaxel, paclitaxel, reference compound] | log10M | = | −4.65 |
| CC1=C(C=Cc2cccc(C=CC3=C(C)C4CCC(C)C5CCC6(C)OOC45C(O3)O6)c2)OC2OC3(C)CCC4C(C)CCC1C24OO3 (stereo not shown) [VII-h] | log10M | = | −5.67 |
| CC1=C(C=Cc2cccc(C=CC3=C(C)C4CCC(C)C5CCC6(C)OOC45C(O3)O6)c2)OC2OC3(C)CCC4C(C)CCC1C24OO3 (stereo not shown) [VII-f] | log10M | > | −4.00 |

* * *

tested on: NCI-H226; assay: NCI 60 cell line screen (SRB), Non-Small Cell Lung Cancer; format: cell-based; conditions: Table IV (LC50, PG=−50)

| Compound | Log10GI50 |
| --- | --- |
| CC1=C(C=Cc2cccc(C=CC3=C(C)C4CCC(C)C5CCC6(C)OOC45C(O3)O6)c2)OC2OC3(C)CCC4C(C)CCC1C24OO3 (centres unmarked) [VII-h] | >−4.00 log10M |
| CC1=C(C=Cc2cccc(C=CC3=C(C)C4CCC(C)C5CCC6(C)OOC45C(O3)O6)c2)OC2OC3(C)CCC4C(C)CCC1C24OO3 (centres unmarked) [VII-f] | >−4.00 log10M |
| C[C@@H]1CC[C@H]2[C@@H](C)C(=O)O[C@@H]3O[C@]4(C)CC[C@@H]1[C@]32OO4 | >−4.00 log10M |
| CC1=C(C=Cc2cccc(C=CC3=C(C)C4CCC(C)C5CCC6(C)OOC45C(O3)O6)c2)OC2OC3(C)CCC4C(C)CCC1C24OO3 (centres unmarked) [VII-g] | >−4.00 log10M |
| CC(=O)O[C@H]1C(=O)[C@@]2(C)[C@H]([C@H](OC(=O)c3ccccc3)[C@]3(O)C[C@H](OC(=O)[C@H](O)[C@@H](NC(=O)c4ccccc4)c4ccccc4)C(C)=C1C3(C)C)[C@]1(OC(C)=O)CO[C@@H]1C[C@@H]2O [Paclitaxel, paclitaxel, reference compound] | −4.10 log10M |

* * *

Log10GI50 values for the compounds below.
tested on: K-562; experiment: NCI 60 cell line screen (SRB), Leukemia; format: cell-based; conditions: PG=+50
Quantity Measured: Log10GI50 (log10M)

| Compound | Target Desc | Quantity Measured | Unit Tag | Reported |
| --- | --- | --- | --- | --- |
| CC1=C(C=Cc2cccc(C=CC3=C(C)C4CCC(C)C5CCC6(C)OOC45C(O3)O6)c2)OC2OC3(C)CCC4C(C)CCC1C24OO3 (centres unmarked) [VII-h] | K-562 | Log10GI50 | log10M | −7.70 |
| CC1=C(C=Cc2cccc(C=CC3=C(C)C4CCC(C)C5CCC6(C)OOC45C(O3)O6)c2)OC2OC3(C)CCC4C(C)CCC1C24OO3 (centres unmarked) [VII-f] | K-562 | Log10GI50 | log10M | −6.18 |
| C[C@@H]1CC[C@H]2[C@@H](C)C(=O)O[C@@H]3O[C@]4(C)CC[C@@H]1[C@]32OO4 | K-562 | Log10GI50 | log10M | −4.33 |
| CC1=C(C=Cc2cccc(C=CC3=C(C)C4CCC(C)C5CCC6(C)OOC45C(O3)O6)c2)OC2OC3(C)CCC4C(C)CCC1C24OO3 (centres unmarked) [VII-g] | K-562 | Log10GI50 | log10M | −7.31 |
| CC(=O)O[C@H]1C(=O)[C@@]2(C)[C@H]([C@H](OC(=O)c3ccccc3)[C@]3(O)C[C@H](OC(=O)[C@H](O)[C@@H](NC(=O)c4ccccc4)c4ccccc4)C(C)=C1C3(C)C)[C@]1(OC(C)=O)CO[C@@H]1C[C@@H]2O [Paclitaxel, paclitaxel, reference compound] | K-562 | Log10GI50 | log10M | −10.83 |
